Procedure text: Cytotoxicity against Chlorocebus aethiops (African green monkey) Vero cells assessed as cell viability after 72 hr by MTT assay
Format: cell-based
Experimental setup: chlorocebus sabaeus
CC50 at 72 h strictly under 200 µM means Yes; at 200 µM or over means No.

Worked examples, 8 compounds total:
C/C(=N/NC(=S)N(Cc1ccccc1)Cc1ccccc1)c1ccc([N+](=O)[O-])cc1 : Yes
Cc1ccccc1/C=N\NC(=S)N(Cc1ccccc1)Cc1ccccc1 : Yes
S=C(NN=C(c1ccccc1)c1ccccc1)N(Cc1ccccc1)Cc1ccccc1 : Yes
C=CCN(CC=C)C(=S)N/N=C(/C)c1ccc(F)cc1 : No
O=[N+]([O-])c1ccccc1/C=N\NC(=S)N(Cc1ccccc1)Cc1ccccc1 : Yes
NNC(=O)c1ccncc1 : No
C=CCN(CC=C)C(=S)NN=C(c1ccccc1)c1ccccc1 : Yes
C=CCN(CC=C)C(=S)N/N=C(/C)c1ccccc1 : No

I'd appreciate it if you could check whether C/C(=N/NC(=S)N(Cc1ccccc1)Cc1ccccc1)c1ccc(N)cc1 has CC50 at 72 h smaller than 200 µM.
Yes
